Here the recorded Kd is given for each entry.
MEASURED ON: BoNT/B3 (Clostridium botulinum)
TEST PROTOCOL: yeast scFv FACS

| BINDER | Kd (nM) |
| --- | --- |
| 19B6 scFv (scFv) scFv: QVQLQQSGAELVKPGASVKISCKASGYTFTDNYINWVKQRPGQGLEWIGWIHPGSGNAKYNEKFRAKATLTVDTSSNTAYMQLSSLTSEDSAVYFCARVGFRVNFDYWGQGTTLTVSSVDLKSGGSTSGSGKPGSGEGSSGSARQIVLTQSPAIMSASPGEKVTMTCSASSSLSYVHWYQQKPGSSPKPWIYATSNLVSGVPARFSGSRSGTSYSLTISSMEAEDAATYYCQQWSSYPPTFGAGTKLEIK | 866 |
| 16B3 scFv (scFv) scFv: EVQLQQSGPELVKPGASVKITCKASGYTFTDNNMDWVKQSHGKSLEWIGDINPNNGGSIYNQKFKGKASLTLDKSSSTAYMELRSLTSEDTAVYYCARWGYYGSLAYWGQGTLVTVSSVDLKSGGSTSGSGKPGSGEGSSGSARQNVLTQSPAIMSASPGEKVTMTCSASSSVSSRYLHWYQQKSGASPKLWIYGTSNLASGVPARFSGSGSGTSYSLTISSVEAEDAATYYCQQYHSDPLTFGGGTKLEIK | 0.49 |
